Collected half-life values appear next to each entry.
# ASSAY_INFO: half life (stability) in 0.1 M phosphate buffer
# Type: physicochemical
# CONDITION_LABEL: 0.1 m phosphate buffer, pH 7.4
# Excerpt: The 27-hydroxyrapamycin derivatives of formulas II - X are also expected to resist ring degredative reactions better than rapamycin and 31- and/or 42- substituted rapamycin derivatives of rapamycin.
Give the value in h but do not write h after it.

# MOLECULE, ENDPOINT_LABEL, RECORDED_MEASUREMENT
rows = [
    ("CO[C@H]1C[C@@H]2CC[C@@H](C)[C@@](O)(O2)C(=O)C(=O)N2CCCC[C@H]2C(=O)O[C@H]([C@H](C)C[C@@H]2CC[C@@H](O)[C@H](OC)C2)CC(=O)[C@H](C)/C=C(\\C)[C@@H](O)[C@@H](OC)C(=O)[C@H](C)C[C@H](C)/C=C/C=C/C=C/1C", "half-life", 11.8),
]

API: the following record is the query input.
Look up half-life for this molecule: CO[C@H]1C[C@@H]2CC[C@@H](C)[C@@](O)(O2)C(=O)C(=O)N2CCCC[C@H]2C(=O)O[C@H]([C@H](C)C[C@@H]2CC[C@@H](O)[C@H](OC)C2)CC(OC(C)=O)[C@H](C)/C=C(\C)[C@@H](O)[C@@H](OC)C(=O)[C@H](C)C[C@H](C)/C=C/C=C/C=C/1C (some centres unmarked) 34
